Molecular target: KDR (Homo sapiens)
Conditions: cell-free
metric-name: IC50

response.value for C=CC(=O)Nc1ccc2ncnc(Nc3ccc(OCc4cccc(F)c4)c(Cl)c3)c2c1 [AST1306] (field: IC50) = > 10 µM

---

Target: EGFR T790M/L858R (Homo sapiens, UniProt P00533, L858R/T790M)
Sequence (P00533 25-1210 T790M/L858R): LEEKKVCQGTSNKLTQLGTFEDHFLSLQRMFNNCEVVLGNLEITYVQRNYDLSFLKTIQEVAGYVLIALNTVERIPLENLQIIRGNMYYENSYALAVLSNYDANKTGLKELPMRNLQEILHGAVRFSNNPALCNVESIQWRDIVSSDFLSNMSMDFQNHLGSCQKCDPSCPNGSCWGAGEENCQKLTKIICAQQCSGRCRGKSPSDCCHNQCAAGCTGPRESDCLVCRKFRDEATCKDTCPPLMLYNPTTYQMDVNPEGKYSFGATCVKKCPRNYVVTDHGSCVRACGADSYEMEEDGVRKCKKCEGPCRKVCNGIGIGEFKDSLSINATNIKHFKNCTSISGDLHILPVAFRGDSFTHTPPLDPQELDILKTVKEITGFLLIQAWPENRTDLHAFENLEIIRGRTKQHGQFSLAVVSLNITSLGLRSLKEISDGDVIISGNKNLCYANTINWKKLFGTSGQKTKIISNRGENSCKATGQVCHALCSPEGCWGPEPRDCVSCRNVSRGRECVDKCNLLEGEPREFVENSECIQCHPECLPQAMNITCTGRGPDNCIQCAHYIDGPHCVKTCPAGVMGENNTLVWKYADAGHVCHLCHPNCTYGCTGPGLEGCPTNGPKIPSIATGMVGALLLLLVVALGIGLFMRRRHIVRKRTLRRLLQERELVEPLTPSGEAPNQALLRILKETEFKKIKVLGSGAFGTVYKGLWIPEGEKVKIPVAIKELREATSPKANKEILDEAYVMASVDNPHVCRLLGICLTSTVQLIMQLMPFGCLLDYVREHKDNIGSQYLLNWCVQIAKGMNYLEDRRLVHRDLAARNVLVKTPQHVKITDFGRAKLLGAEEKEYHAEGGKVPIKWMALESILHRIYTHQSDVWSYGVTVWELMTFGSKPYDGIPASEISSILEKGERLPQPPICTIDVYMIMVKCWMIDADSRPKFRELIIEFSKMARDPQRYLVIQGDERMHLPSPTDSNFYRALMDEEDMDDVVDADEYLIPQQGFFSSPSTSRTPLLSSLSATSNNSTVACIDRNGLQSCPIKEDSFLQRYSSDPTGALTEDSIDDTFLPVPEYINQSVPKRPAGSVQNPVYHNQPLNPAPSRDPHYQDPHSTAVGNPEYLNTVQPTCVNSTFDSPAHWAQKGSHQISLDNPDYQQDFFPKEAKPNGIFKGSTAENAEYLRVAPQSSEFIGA
Assay: In vitro tyrosine kinase assay (ELISA)
Conditions: EGFR T790M/L858R double mutant, cell-free; means ± SD
metric-name: IC50 (nM)
The figure you give is taken to be in nM; do not add the unit.

response.value for C=CC(=O)Nc1ccc2ncnc(Nc3ccc(OCc4cccc(F)c4)c(Cl)c3)c2c1 (field: IC50) = 12

---

metric-name: IC50

CDK2 (Homo sapiens, UniProt P24941) data for C=CC(=O)Nc1ccc2ncnc(Nc3ccc(OCc4cccc(F)c4)c(Cl)c3)c2c1 ; its IC50: > 10 µM

---

Biological target: IGF1R (Homo sapiens, UniProt P08069)
Sequence (P08069 999-1274 limits assumed): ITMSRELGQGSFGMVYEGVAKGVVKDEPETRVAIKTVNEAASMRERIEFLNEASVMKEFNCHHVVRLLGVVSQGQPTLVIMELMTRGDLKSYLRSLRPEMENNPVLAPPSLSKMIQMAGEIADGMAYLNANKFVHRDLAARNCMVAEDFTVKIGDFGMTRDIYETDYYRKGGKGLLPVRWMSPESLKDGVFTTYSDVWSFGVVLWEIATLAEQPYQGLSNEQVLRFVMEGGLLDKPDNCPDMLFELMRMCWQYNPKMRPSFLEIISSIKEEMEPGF
metric-name: IC50

response.value for C=CC(=O)Nc1ccc2ncnc(Nc3ccc(OCc4cccc(F)c4)c(Cl)c3)c2c1 [AST1306] (field: IC50) = > 10 µM

---

Molecular target: Abl (Homo sapiens)
metric-name: IC50

response.value for C=CC(=O)Nc1ccc2ncnc(Nc3ccc(OCc4cccc(F)c4)c(Cl)c3)c2c1 (field: IC50) = > 10 µM

---

Target: c-Kit (Homo sapiens, UniProt P10721)
Sequence (P10721 589-937 limits assumed): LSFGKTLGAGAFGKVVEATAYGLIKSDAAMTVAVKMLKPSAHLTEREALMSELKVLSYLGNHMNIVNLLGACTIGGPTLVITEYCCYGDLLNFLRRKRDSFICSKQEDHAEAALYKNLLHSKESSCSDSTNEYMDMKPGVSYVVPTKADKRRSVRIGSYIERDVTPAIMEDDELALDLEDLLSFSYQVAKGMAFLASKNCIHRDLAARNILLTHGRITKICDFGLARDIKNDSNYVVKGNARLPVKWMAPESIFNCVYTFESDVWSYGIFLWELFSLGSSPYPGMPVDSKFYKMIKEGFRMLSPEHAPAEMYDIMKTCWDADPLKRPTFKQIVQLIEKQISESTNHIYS
metric-name: IC50

response.value for C=CC(=O)Nc1ccc2ncnc(Nc3ccc(OCc4cccc(F)c4)c(Cl)c3)c2c1 [AST1306] (field: IC50) = > 10 µM

---

metric-name: IC50 (nM)
The figure you give is taken to be in nM; do not add the unit.

ErbB4 (Homo sapiens) data for C=CC(=O)Nc1ccc2ncnc(Nc3ccc(OCc4cccc(F)c4)c(Cl)c3)c2c1 ; its IC50: 0.8

---

Target: UniProt:O60674
Sequence (O60674 whole entry): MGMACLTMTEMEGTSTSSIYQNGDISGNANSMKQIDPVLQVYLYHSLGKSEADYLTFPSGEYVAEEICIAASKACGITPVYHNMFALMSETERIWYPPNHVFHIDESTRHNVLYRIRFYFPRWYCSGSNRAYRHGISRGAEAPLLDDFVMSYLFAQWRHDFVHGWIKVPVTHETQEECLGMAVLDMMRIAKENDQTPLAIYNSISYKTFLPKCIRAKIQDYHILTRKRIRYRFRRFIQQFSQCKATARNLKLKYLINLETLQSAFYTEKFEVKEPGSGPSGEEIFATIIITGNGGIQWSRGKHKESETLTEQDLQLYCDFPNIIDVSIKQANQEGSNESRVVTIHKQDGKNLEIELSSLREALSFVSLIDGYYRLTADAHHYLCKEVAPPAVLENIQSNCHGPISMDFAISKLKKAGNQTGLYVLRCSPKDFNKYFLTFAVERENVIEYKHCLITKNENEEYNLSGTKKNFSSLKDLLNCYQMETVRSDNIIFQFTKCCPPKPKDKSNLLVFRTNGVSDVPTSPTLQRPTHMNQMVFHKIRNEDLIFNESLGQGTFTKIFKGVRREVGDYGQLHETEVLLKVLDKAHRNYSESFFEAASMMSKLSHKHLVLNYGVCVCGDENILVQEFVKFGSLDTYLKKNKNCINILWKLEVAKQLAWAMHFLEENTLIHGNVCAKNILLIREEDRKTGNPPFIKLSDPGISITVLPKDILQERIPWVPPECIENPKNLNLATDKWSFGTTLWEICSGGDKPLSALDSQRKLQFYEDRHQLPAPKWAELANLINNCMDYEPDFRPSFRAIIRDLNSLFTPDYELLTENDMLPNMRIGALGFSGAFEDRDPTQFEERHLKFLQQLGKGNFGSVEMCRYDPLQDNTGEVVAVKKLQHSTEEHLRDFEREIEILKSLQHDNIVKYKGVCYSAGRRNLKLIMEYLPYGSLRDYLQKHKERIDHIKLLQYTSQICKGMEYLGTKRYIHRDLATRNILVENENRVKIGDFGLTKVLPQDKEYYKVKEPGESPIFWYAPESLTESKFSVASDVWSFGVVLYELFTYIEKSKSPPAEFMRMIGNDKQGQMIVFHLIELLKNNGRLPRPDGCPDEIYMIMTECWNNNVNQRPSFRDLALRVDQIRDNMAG
metric-name: IC50

response.value for C=CC(=O)Nc1ccc2ncnc(Nc3ccc(OCc4cccc(F)c4)c(Cl)c3)c2c1 [AST1306] (field: IC50) = > 10 µM

---

Target: PDGFRα (Homo sapiens, UniProt P16234)
Sequence (P16234 593-954 limits assumed): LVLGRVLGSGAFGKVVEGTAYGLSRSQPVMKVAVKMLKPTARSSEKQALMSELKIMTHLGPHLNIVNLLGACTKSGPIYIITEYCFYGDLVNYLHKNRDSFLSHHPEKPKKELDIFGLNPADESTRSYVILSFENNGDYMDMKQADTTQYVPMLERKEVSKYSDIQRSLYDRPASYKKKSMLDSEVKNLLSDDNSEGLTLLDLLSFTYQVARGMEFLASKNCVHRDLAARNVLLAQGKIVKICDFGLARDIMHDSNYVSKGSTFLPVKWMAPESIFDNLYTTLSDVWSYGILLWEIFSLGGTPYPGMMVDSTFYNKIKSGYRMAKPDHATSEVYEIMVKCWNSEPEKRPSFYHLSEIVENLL
Conditions: cell-free
metric-name: IC50

response.value for C=CC(=O)Nc1ccc2ncnc(Nc3ccc(OCc4cccc(F)c4)c(Cl)c3)c2c1 [AST1306] (field: IC50) = > 10 µM

---

Target: RON (Homo sapiens)
Sequence (Q04912 1082-1345 limits assumed): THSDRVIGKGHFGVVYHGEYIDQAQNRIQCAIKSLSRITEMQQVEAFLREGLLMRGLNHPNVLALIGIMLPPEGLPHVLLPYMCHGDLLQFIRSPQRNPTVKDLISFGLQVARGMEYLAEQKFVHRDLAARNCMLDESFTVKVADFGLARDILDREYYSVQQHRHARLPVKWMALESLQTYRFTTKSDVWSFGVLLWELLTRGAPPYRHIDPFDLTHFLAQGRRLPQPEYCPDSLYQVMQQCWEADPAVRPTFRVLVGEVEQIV
pIC50: −log10 of the molar value.
metric-name: pIC50

response.value for C=CC(=O)Nc1ccc2ncnc(Nc3ccc(OCc4cccc(F)c4)c(Cl)c3)c2c1 [AST1306] (field: pIC50) = < 5.00

---

Target: PKCb2 (Homo sapiens, UniProt P05771)
Sequence (P05771 1-673 isoform P05771-2): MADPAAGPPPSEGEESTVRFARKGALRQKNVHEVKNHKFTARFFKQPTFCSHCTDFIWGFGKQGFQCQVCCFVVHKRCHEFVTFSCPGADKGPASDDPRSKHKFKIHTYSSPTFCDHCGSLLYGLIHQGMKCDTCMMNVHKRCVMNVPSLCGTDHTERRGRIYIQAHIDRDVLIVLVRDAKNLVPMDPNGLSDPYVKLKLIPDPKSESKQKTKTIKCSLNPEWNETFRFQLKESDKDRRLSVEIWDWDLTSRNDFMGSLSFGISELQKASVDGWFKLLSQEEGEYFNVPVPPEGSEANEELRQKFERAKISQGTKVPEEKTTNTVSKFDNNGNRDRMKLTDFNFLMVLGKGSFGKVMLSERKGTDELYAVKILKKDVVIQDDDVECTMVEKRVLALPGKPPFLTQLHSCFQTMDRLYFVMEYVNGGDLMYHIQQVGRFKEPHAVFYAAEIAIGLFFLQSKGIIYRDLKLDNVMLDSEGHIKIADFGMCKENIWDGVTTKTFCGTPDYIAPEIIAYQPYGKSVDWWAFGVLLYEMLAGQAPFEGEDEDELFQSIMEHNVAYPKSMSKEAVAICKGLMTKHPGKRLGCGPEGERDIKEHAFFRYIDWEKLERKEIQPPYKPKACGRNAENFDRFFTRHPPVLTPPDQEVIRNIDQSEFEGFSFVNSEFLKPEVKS
metric-name: IC50

response.value for C=CC(=O)Nc1ccc2ncnc(Nc3ccc(OCc4cccc(F)c4)c(Cl)c3)c2c1 (field: IC50) = > 10 µM

---

Target: UniProtKB O14965
Sequence (O14965 whole entry): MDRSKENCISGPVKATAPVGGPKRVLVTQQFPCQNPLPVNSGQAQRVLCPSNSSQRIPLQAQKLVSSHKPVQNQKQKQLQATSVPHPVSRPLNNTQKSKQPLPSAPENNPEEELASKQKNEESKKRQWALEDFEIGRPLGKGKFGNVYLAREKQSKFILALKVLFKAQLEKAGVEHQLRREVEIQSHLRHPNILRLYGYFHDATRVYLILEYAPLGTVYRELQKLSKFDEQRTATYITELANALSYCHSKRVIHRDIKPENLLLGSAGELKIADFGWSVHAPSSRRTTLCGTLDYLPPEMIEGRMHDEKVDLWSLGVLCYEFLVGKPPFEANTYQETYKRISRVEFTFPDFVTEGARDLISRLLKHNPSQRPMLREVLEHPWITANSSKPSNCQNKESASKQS
Conditions: cell-free
Experimental: The tyrosine kinase activities were determined using enzyme-linked immunosorbant assay (ELISA). The serine/threonine kinase activities were detected by Caliper Mobility Shift Assay on EZ Reader (Caliper Life Sciences, MA) according to the instruction. […]
metric-name: IC50

response.value for C=CC(=O)Nc1ccc2ncnc(Nc3ccc(OCc4cccc(F)c4)c(Cl)c3)c2c1 (field: IC50) = > 10 µM

---

Target: UniProt:P12931
Sequence (P12931 270-523 limits assumed): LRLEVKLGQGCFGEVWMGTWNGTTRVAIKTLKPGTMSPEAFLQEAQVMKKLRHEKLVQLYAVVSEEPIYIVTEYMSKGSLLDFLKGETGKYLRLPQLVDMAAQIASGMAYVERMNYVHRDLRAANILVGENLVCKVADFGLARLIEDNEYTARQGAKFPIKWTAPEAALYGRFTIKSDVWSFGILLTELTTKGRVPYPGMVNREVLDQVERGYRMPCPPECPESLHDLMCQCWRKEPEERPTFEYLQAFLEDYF
metric-name: IC50

UniProt:P12931 data for C=CC(=O)Nc1ccc2ncnc(Nc3ccc(OCc4cccc(F)c4)c(Cl)c3)c2c1 ; its IC50: > 10 µM
